Here the recorded EC50 is given for each entry.
system: NIH3T3; assay: Cytotoxicity against mouse NIH/3T3 cells after 96 hrs by sulforhodamine-B assay; format: cell-based; settings: NIH3T3, 96 h
Report as a plain number; the unit µM is understood.

The following molecules have reported results that may help.
smiles-record: C=CCN(CC(=O)NC(C)(C)C)C(=O)[C@]12CCC(C)(C)C[C@H]1C1=CC[C@@H]3[C@@]4(C)CC[C@H](O)C(C)(C)[C@@H]4CC[C@@]3(C)[C@]1(C)CC2
assayed-system: NIH3T3
quantity-kind: EC50
result-value: 15.5
//
smiles-record: CC1(C)CC[C@]2(C(=O)N(CC(=O)NC(C)(C)C)Cc3ccccc3)CC[C@]3(C)C(=CC[C@@H]4[C@@]5(C)CC[C@H](O)C(C)(C)[C@@H]5CC[C@]43C)[C@@H]2C1
assayed-system: NIH3T3
quantity-kind: EC50
result-value: 8.8
//
smiles-record: CC(=O)O[C@@H]1C[C@]2(C)[C@H]3CC=C4[C@@H]5CC(C)(C)CC[C@]5(C(=O)N(CC(=O)NCc5ccccc5)Cc5ccccc5)CC[C@@]4(C)[C@]3(C)CC[C@H]2C(C)(C)[C@H]1OC(C)=O
assayed-system: NIH3T3
quantity-kind: EC50
result-value: 21.9
//
smiles-record: CC(=O)O[C@@H]1C[C@]2(C)[C@H]3CC=C4[C@@H]5CC(C)(C)CC[C@]5(C(=O)OCC(=O)NCc5ccccc5)CC[C@@]4(C)[C@]3(C)CC[C@H]2C(C)(C)[C@H]1OC(C)=O
assayed-system: NIH3T3
quantity-kind: EC50
result-value: 2
//
smiles-record: CC(C)NC(=O)CN(Cc1ccoc1)C(=O)[C@]12CCC(C)(C)C[C@H]1C1=CC[C@@H]3[C@@]4(C)CC[C@H](O)C(C)(C)[C@@H]4CC[C@@]3(C)[C@]1(C)CC2
assayed-system: NIH3T3
quantity-kind: EC50
result-value: 5.5
//
smiles-record: CC(=O)O[C@@H]1C[C@]2(C)[C@H]3CC=C4[C@@H]5CC(C)(C)CC[C@]5(C(=O)O)CC[C@@]4(C)[C@]3(C)CC[C@H]2C(C)(C)[C@H]1OC(C)=O
assayed-system: NIH3T3
quantity-kind: EC50
result-value: 12.2
//
smiles-record: C=CCN(CC(=O)NCC(=O)OC)C(=O)[C@]12CCC(C)(C)C[C@H]1C1=CC[C@@H]3[C@@]4(C)CC[C@H](OC(C)=O)C(C)(C)[C@@H]4CC[C@@]3(C)[C@]1(C)CC2
assayed-system: NIH3T3
quantity-kind: EC50
result-value: 7.3
//
smiles-record: CC(=O)O[C@H]1CC[C@]2(C)[C@H]3CC=C4[C@@H]5CC(C)(C)CC[C@]5(C(=O)OCC(=O)NCc5ccccc5)CC[C@@]4(C)[C@]3(C)CC[C@H]2C1(C)C
assayed-system: NIH3T3
quantity-kind: EC50
result-value: 6.4
//
smiles-record: CC(=O)O[C@@H]1C[C@]2(C)[C@H]3CC=C4[C@@H]5CC(C)(C)CC[C@]5(C(=O)N(CC(=O)NC(C)(C)C)Cc5ccoc5)CC[C@@]4(C)[C@]3(C)CC[C@H]2C(C)(C)[C@H]1OC(C)=O
assayed-system: NIH3T3
quantity-kind: EC50
result-value: 7.3

Here is another molecule to look at.
[Q] // EC50 lookup, key: `CN(CC(=O)NC(C)(C)C)C(=O)[C@]12CCC(C)(C)C[C@H]1C1=CC[C@@H]3[C@@]4(C)CC[C@H](O)C(C)(C)[C@@H]4CC[C@@]3(C)[C@]1(C)CC2`
[A] 11.2
